- Test system: H. contortus xL3s
- MEASUREMENT PROTOCOL: Dose-response evaluation, xL3 motility
- Assay type: cell-based
- STUDY CONDITIONS: Haemonchus contortus, 90 h, xL3s, 90 h; read-out: IC50 (motility)
OBSERVED PROPERTY: IC50 (µM)
Answer format: numeric, µM implied, no suffix.

# IC50 lookup, item CCCc1ccc(-c2nc(-c3cccs3)no2)cc1 [UMW-868]
5.6

---

Task for the reader: assign each of the following molecules its reported IC50.
- Tested on: H. contortus xL3s
- MEASUREMENT PROTOCOL: Dose-response evaluation, xL3 motility
- Type: cell-based
- STUDY CONDITIONS: Haemonchus contortus, 168 h, analog series; read-out: xL3 motility reduction (IC50 in µM)

Fill in the blank: the reported IC50 of FC(F)Oc1ccc(-c2nc(-c3cccs3)no2)cc1 [Compound A-4340] is ____.
4 µM

State the recorded IC50 for this entry: c1ccc(-c2noc(-c3cccs3)n2)cc1 [Tioxazafen, reference compound]
> 50 µM

Recorded IC50 for CCCc1ccc(-c2nc(-c3ccccc3)no2)cc1 [Compound A-3126] , please?
12.1 µM

Report IC50 for CCCc1ccc(-c2nc(-c3ccc(C(F)(F)F)cc3)no2)cc1 [Compound A-6501] please.
1.6 µM

Query: IC50; subject: CCCc1ccc(-c2nc(-c3ccc(C)cc3)no2)cc1 [Compound A-3136]
4.8 µM

Look up IC50 for this molecule: CCCc1ccc(-c2nc(-c3ccc(OC)cc3)no2)cc1 [Compound A-6318]
1.4 µM

Which value of IC50 has been reported for CCCc1ccc(-c2nc(-c3cccs3)no2)cc1 [UMW-868] in the records?
13.8 µM

For the molecule shown here, FC(F)Oc1ccc(-c2nc(-c3ccc(C(F)(F)F)cc3)no2)cc1 [Compound A-6325] , give the reported IC50.
1.4 µM

Consider the molecule CCOc1ccc(-c2nc(-c3cccs3)no2)cc1 [Compound A-3134] and give its measured IC50.
7.8 µM

Need IC50 of FC(F)(F)Oc1ccc(-c2nc(-c3cccs3)no2)cc1 [Compound A-6316] , thanks.
9.8 µM

Look up IC50: c1ccc(-c2nc(-c3cccs3)no2)cc1 [Compound A-4347]
> 50 µM
